List of TGI values.
Test system: HCT-116 colon
Assay: NCI tumour cell line growth inhibition, 48 h

>  <compound>
C#CCNC(=O)NCCCCC(NC(C)=O)C(=O)NCc1ccccc1 (configuration not stated)

>  <TGI>
> 100 µM

$$$$
>  <compound>
CC1(C)OCN(c2ccc(S(N)(=O)=O)cc2)Cn2c1nc1ccccc12

>  <TGI>
> 100 µM

$$$$
>  <compound>
COC(=O)n1c(C)c(C=O)c2ccc(OC)cc21

>  <TGI>
> 100 µM

$$$$
>  <compound>
C[C@@H]1OC2(O)[C@H]3CCCN3S(=O)(=O)CCN2C1=O (some centres not stated)

>  <TGI>
> 100 µM

$$$$
>  <compound>
Cc1cccc(/C=N\NC(=S)N2CCCCC2)n1

>  <TGI>
0.125 µM

$$$$
>  <compound>
CC1CCC(=O)C(C(O)CC2CC(=O)N(c3ccccc3)C(=O)C2)C1 (configuration not stated)

>  <TGI>
> 100 µM

$$$$
>  <compound>
Cc1ccc(Cl)cc1NC(=O)c1cc2ccccc2cc1O

>  <TGI>
0.924 µM

$$$$
>  <compound>
CCO/C(O)=C(/C(=N)N1CCCC1)C(=O)Nc1cccc(Cl)c1

>  <TGI>
> 100 µM

$$$$
>  <compound>
COc1ccc2nc(-c3ccccc3)cc(Nc3cccc(C(C)=O)c3)c2c1

>  <TGI>
15.4 µM

$$$$
>  <compound>
CC(=O)OCC1OC(n2c(N)c(C#N)c(C)c(C#N)c2=S)C(OC(C)=O)C(OC(C)=O)C1OC(C)=O (configuration not stated)

>  <TGI>
> 100 µM

$$$$
>  <compound>
C/C(=N\NC(=S)NC(CCC(=O)O)C(=O)O)c1cnccn1 (configuration not stated)

>  <TGI>
> 100 µM

$$$$
>  <compound>
CCOC(=O)[C@@H]1ON2O[C@H](OC3CCCCC3c3ccccc3)C[C@H]3OC(=O)[C@@H]1C32 (some centres not stated)

>  <TGI>
> 100 µM

$$$$
>  <compound>
CC1C(=O)c2cc3c(cc2CCN(C)Cc2c1ccc1c2OCO1)OCO3 (configuration not stated)

>  <TGI>
> 75 µg/mL

$$$$
>  <compound>
O=c1c2ccccc2nc(-c2ccccc2Cl)n1-c1nnc(C(F)(F)F)s1

>  <TGI>
10.1 µM

$$$$
>  <compound>
Nc1nnnc2nc[nH]c12

>  <TGI>
> 100 µM

$$$$
>  <compound>
CCCC(C)NC(=O)c1ccc(N(C)Cc2cnc3nc(N)nc(N)c3n2)cc1 (configuration not stated)

>  <TGI>
> 100 µM

$$$$
>  <compound>
O=Cc1c(-c2ccccc2)[nH]c2ccccc2c1=O

>  <TGI>
> 100 µM

$$$$
>  <compound>
CCOC(=O)N(C)C(=C(F)F)C(F)(F)F

>  <TGI>
55.2 µM

$$$$
>  <compound>
CN(C)/C=N\c1nncc2[nH]cnc12

>  <TGI>
> 100 µM

$$$$
>  <compound>
O=C(Nc1cccc(-n2cc(-c3ccncc3)c(-c3ccc(O)c(Cl)c3)n2)c1)c1cc(C(F)(F)F)cc(C(F)(F)F)c1

>  <TGI>
> 50 µM

$$$$
>  <compound>
O=C1C2Cc3c(n(C(=O)c4ccccc4)c4ccccc34)CC2C(=O)N1c1ccc(Nc2ccc(N3C(=O)C4Cc5c(n(C(=O)c6ccccc6)c6ccccc56)CC4C3=O)cc2)cc1 (configuration not stated)

>  <TGI>
> 100 µM

$$$$
>  <compound>
CCN(CC)CCCNc1ccc([N+](=O)[O-])c2nc3ccc(OC)cc3c(N)c12

>  <TGI>
2.49 µM

$$$$

Cited source: PubChem BioAssay (NCI)
